Data origin, for the record: patent US5972599

# ASSAYED SYSTEM: TNF-alpha (Homo sapiens, UniProt P01375 P01375:77-233)
# Sequence (P01375 77-233, one chain of several): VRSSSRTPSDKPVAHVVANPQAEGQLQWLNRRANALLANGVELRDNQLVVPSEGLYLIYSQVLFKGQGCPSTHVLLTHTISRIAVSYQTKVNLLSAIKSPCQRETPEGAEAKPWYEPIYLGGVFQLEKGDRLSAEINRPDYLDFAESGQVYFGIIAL
# TEST DETAILS: competition; U937 cells; 3 points
# TEST PARAMETERS: tags: Genzyme or R&D Systems; chain copies: 3 inferred

BINDER: TNF 23A (ssRNA) RNA: GGGAGCUCAGAAUAAACGCUCAACCUCAUCCUCGCACGCCAUCGCCUGAACCGUUCGACAUGAGGCCCGGAUCCGGC
Ki: ~241 nM
--
BINDER: TNF 16C (ssRNA) RNA: GGGAGCUCAGAAUAAACGCUCAACCUGGUGGUCGUGCGGCUGUCGCCUCAAGGUUCGACAUGAGGCCCGGAUCCGGC
Ki: ~313 nM
